assay: Tmax in Sprague-Dawley rat at 20 mg/kg, po measured upto 12 hrs by LC-MS/MS analysis; assay type: ADME, organism-based; conditions: in vivo
Readout Kind: Tmax (min)

1) CCC(CC)O[C@@H]1C=C(C(=O)O)C[C@H](NCc2ccc(-c3cccs3)cc2OC)[C@H]1NC(C)=O = 20
2) CCC(CC)O[C@@H]1C=C(C(=O)O)C[C@H](NCc2ccc(-c3ccsc3)cc2OC)[C@H]1NC(C)=O = 30

====

experiment: Cmax in Sprague-Dawley rat at 20 mg/kg, po measured upto 12 hrs by LC-MS/MS analysis; format: ADME, organism-based; set-up: time < 12 hrs, dose 20 mg/kg, route po; details: in vivo
Readout Kind: Cmax

1) CCC(CC)O[C@@H]1C=C(C(=O)O)C[C@H](NCc2ccc(-c3ccsc3)cc2OC)[C@H]1NC(C)=O = 491 ng/mL
2) CCC(CC)O[C@@H]1C=C(C(=O)O)C[C@H](NCc2ccc(-c3cccs3)cc2OC)[C@H]1NC(C)=O = 511 ng/mL

====

experiment: in vitro; conditions: human, liver microsomes
Use 1 h as the dividing line for half-life at 2 h, with the line itself on the YES side and lower values as NO.

1. CCC(CC)O[C@@H]1C=C(C(=O)O)C[C@H](N)[C@H]1NC(C)=O [OSELTAMIVIR CARBOXYLATE] = YES
2. CCC(CC)O[C@@H]1C=C(C(=O)O)C[C@H](NCc2ccc(-c3cccs3)cc2OC)[C@H]1NC(C)=O = YES
3. O=C(O)Cc1ccccc1Nc1c(Cl)cccc1Cl = NO
4. CCC(CC)O[C@@H]1C=C(C(=O)O)C[C@H](NCc2ccc(-c3cccs3)cc2Cl)[C@H]1NC(C)=O = YES
5. CCC(CC)O[C@@H]1C=C(C(=O)O)C[C@H](NCc2ccc(-c3ccsc3)cc2O)[C@H]1NC(C)=O = NO
6. CCC(CC)O[C@@H]1C=C(C(=O)O)C[C@H](NCc2ccc(-c3cccs3)cc2C)[C@H]1NC(C)=O = YES
7. CCC(CC)O[C@@H]1C=C(C(=O)O)C[C@H](NCc2ccc(-c3ccsc3)cc2Cl)[C@H]1NC(C)=O = YES
8. CCC(CC)O[C@@H]1C=C(C(=O)O)C[C@H](NCc2ccc(-c3ccsc3)cc2OC)[C@H]1NC(C)=O = YES

====

assay: Clearance in Sprague-Dawley rat at 2 mg/kg, iv measured upto 12 hrs by LC-MS/MS analysis; type: ADME, organism-based; conditions: in vivo
Readout Kind: clearance (mL/min/kg)

1) CCC(CC)O[C@@H]1C=C(C(=O)O)C[C@H](NCc2ccc(-c3cccs3)cc2OC)[C@H]1NC(C)=O = 17.7
2) CCC(CC)O[C@@H]1C=C(C(=O)O)C[C@H](NCc2ccc(-c3ccsc3)cc2OC)[C@H]1NC(C)=O = 17.2

====

test: Half-life in Sprague-Dawley rat at 20 mg/kg, po measured upto 12 hrs by LC-MS/MS analysis; type: ADME, organism-based; conditions: in vivo
Reported values of half-life for individual entries
Readout Kind: half-life (min)

1. CCC(CC)O[C@@H]1C=C(C(=O)O)C[C@H](NCc2ccc(-c3cccs3)cc2OC)[C@H]1NC(C)=O = 20.9
2. CCC(CC)O[C@@H]1C=C(C(=O)O)C[C@H](NCc2ccc(-c3ccsc3)cc2OC)[C@H]1NC(C)=O = 50.2

====

Target or system Cytochrome P450 2C19 (Homo sapiens, UniProt P33261); recorded quantity IC50.
Readout Kind: IC50

1. CCC(CC)O[C@@H]1C=C(C(=O)O)C[C@H](NCc2ccc(-c3cccs3)cc2C)[C@H]1NC(C)=O = 38.9 µM
2. CCC(CC)O[C@@H]1C=C(C(=O)O)C[C@H](NCc2ccc(-c3ccsc3)cc2Cl)[C@H]1NC(C)=O = 36.6 µM
3. CCC(CC)O[C@@H]1C=C(C(=O)O)C[C@H](NCc2ccc(-c3cccs3)cc2OC)[C@H]1NC(C)=O = 30.3 µM
4. CCC(CC)O[C@@H]1C=C(C(=O)O)C[C@H](NCc2ccc(-c3cccs3)cc2Cl)[C@H]1NC(C)=O = 39.3 µM
5. CCC(CC)O[C@@H]1C=C(C(=O)O)C[C@H](NCc2ccc(-c3ccsc3)cc2OC)[C@H]1NC(C)=O = 47.8 µM

====

assay: Cmax in Sprague-Dawley rat at 2 mg/kg, iv measured upto 12 hrs by LC-MS/MS analysis; assay type: ADME, organism-based; set-up: time < 12 hrs, dose 2 mg/kg, route iv; conditions: in vivo
Readout Kind: Cmax (ng/mL)

1. CCC(CC)O[C@@H]1C=C(C(=O)O)C[C@H](NCc2ccc(-c3ccsc3)cc2OC)[C@H]1NC(C)=O = 7200
2. CCC(CC)O[C@@H]1C=C(C(=O)O)C[C@H](NCc2ccc(-c3cccs3)cc2OC)[C@H]1NC(C)=O = 6870

====

assay: Tmax in Sprague-Dawley rat at 2 mg/kg, iv measured upto 12 hrs by LC-MS/MS analysis; assay type: ADME, organism-based; conditions: in vivo
Readout Kind: Tmax

1. CCC(CC)O[C@@H]1C=C(C(=O)O)C[C@H](NCc2ccc(-c3cccs3)cc2OC)[C@H]1NC(C)=O = 4.98 min
2. CCC(CC)O[C@@H]1C=C(C(=O)O)C[C@H](NCc2ccc(-c3ccsc3)cc2OC)[C@H]1NC(C)=O = 4.98 min
